# Target under test: MMP-2 (Homo sapiens, UniProt P08253)
# Construct: made in house; host or cells: MMP-2-transfected p2AHT2 cells
# Sequence (P08253 110-660): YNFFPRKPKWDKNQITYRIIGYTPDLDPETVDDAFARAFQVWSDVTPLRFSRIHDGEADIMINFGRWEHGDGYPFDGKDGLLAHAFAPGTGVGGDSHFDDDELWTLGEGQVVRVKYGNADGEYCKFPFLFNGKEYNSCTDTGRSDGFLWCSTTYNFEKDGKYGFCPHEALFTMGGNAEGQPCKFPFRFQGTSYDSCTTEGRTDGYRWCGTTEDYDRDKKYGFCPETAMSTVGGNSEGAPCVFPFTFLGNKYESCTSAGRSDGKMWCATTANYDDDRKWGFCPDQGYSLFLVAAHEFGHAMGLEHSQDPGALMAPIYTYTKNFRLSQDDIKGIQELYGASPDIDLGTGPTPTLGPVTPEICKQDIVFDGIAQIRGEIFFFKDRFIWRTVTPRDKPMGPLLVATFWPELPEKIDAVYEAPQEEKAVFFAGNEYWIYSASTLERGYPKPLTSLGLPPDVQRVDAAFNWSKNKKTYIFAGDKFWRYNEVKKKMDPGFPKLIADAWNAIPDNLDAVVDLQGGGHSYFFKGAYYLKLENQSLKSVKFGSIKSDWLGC
# Protocol details: In vitro MMP inhibition, Ki determination (fluorogenic substrate II)
# Assay type: biochemical
# Condition label: value outside parentheses; read-out: MMP-2 Ki
pKi: −log10 of the molar value.
Recorded pKi values for a group of compounds are listed next.

[
  {
    "Compound": "COCCN1CCC(C(=O)NO)(S(=O)(=O)N2CCN(c3ccc(Oc4ccccc4)cc3)CC2)CC1 [Example 287]",
    "pKi": 8.03
  },
  {
    "Compound": "Cc1ccc(-c2ccc(C3CCN(S(=O)(=O)C4(C(=O)NO)CCOCC4)CC3)nc2)s1 [Example 416]",
    "pKi": 8.68
  },
  {
    "Compound": "O=C(NO)C1(S(=O)(=O)N2CCN(c3nc(-c4ccccc4)cs3)CC2)CCOCC1 [Example 415]",
    "pKi": 5.54
  },
  {
    "Compound": "O=C(NO)C1(S(=O)(=O)N2CCC(COCc3ccc(SC(F)(F)F)cc3)CC2)CCOCC1 [Example 405]",
    "pKi": 8.90
  },
  {
    "Compound": "O=C(NO)C1(S(=O)(=O)N2CCN(c3ccc(-c4ccc(OC(F)(F)F)cc4)cc3)CC2)CCOCC1 [Example 327]",
    "pKi": 9.01
  },
  {
    "Compound": "O=C(NO)C1(S(=O)(=O)N2CCN(c3ncc(-c4ccc(OC(F)(F)F)cc4)s3)CC2)CCOCC1 [Example 364]",
    "pKi": 9.73
  },
  {
    "Compound": "Cc1ccc(-c2cnc(N3CCN(S(=O)(=O)C4(C(=O)NO)CCOCC4)CC3)s2)cc1 [Example 344]",
    "pKi": 9.75
  },
  {
    "Compound": "O=C(NO)C1(S(=O)(=O)N2CCN(c3ncc(-c4cccnc4)s3)CC2)CCOCC1 [Example 382]",
    "pKi": 9.17
  }
]

----------
Measured pKi of individual entries
# Target under test: MMP-1 (Homo sapiens)
# Construct: made in house; host or cells: MMP-1-transfected HT-1080 cells (spent media)
# Protocol details: In vitro MMP inhibition, Ki determination (fluorogenic substrate II)
# Type: biochemical
# Condition label: human recombinant enzyme; 4 μM substrate II; room temperature, 1 hr; read-out: MMP-1 Ki
# Sequence (P03956 100-469): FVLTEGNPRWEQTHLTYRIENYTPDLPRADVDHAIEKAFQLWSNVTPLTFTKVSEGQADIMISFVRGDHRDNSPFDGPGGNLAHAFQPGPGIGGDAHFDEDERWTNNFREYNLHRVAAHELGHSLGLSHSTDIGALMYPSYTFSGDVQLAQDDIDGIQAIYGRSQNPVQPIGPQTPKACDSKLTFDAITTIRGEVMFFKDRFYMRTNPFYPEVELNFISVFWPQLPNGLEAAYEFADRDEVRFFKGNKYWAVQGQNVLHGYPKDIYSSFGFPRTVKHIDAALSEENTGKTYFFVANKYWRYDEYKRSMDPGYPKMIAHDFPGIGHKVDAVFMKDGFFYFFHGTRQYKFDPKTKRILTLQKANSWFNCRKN
pKi: −log10 of the molar value. Structures can show the parent of a compound that is named as a salt.
Reported metric: pKi

[
  {
    "Compound": "O=C(NO)C1(S(=O)(=O)N2CCN(c3ccc(OC(F)(F)C(F)F)cc3)CC2)CCOCC1",
    "Measured": 5.83
  },
  {
    "Compound": "CCCCCc1ccc(C2CCN(S(=O)(=O)C3(C(=O)NO)CCN(CCOC)CC3)CC2)cc1 [Example 15, Hydrochloride]",
    "Measured": "< 5.00"
  },
  {
    "Compound": "COCCOc1ccc(N2CCN(S(=O)(=O)C3(C(=O)NO)CCOCC3)CC2)cc1 [Example 14, Hydrochloride]",
    "Measured": "< 5.00"
  },
  {
    "Compound": "CCCCOc1ccc(N2CCN(S(=O)(=O)C3(C(=O)NO)CCN(CCOC)CC3)CC2)cc1F [Example 11, Dihydrochloride]",
    "Measured": "< 5.00"
  },
  {
    "Compound": "COc1ccc(-c2cnc(N3CCN(S(=O)(=O)C4(C(=O)NO)CCOCC4)CC3)nc2)cc1 [Example 8, Hydrochloride]",
    "Measured": 6.13
  },
  {
    "Compound": "COCCN1CCC(C(=O)NO)(S(=O)(=O)N2CCN(c3ccc(OCCCC(F)(F)F)cc3)CC2)CC1 [Example 9, Dihydrochloride]",
    "Measured": "< 5.00"
  }
]

----------
# Target under test: MMP-1 (Homo sapiens, UniProt P03956)
# Construct: made in house; host or cells: MMP-1-transfected HT-1080 cells (spent media)
# Protocol details: MMP-1 inhibition (in vitro Ki)
# Format: biochemical
# Condition label: Table 9; read-out: MMP-1 Ki (IC-50)
# Sequence (P03956 100-469, species assumed): as the sequence (P03956 100-469) above
Lab note - cut at 1000 nM for Ki: Yes if strictly below, No if not.

[
  {
    "Compound": "O=C(NO)C1(S(=O)(=O)N2CCC(c3ccc(CCC4CCC4)cn3)CC2)CCOCC1 [Example A120]",
    "Category label": "No"
  },
  {
    "Compound": "CN(C(=O)CCCCC1CCN(S(=O)(=O)C2(C(=O)NO)CCOCC2)CC1)c1ccc(F)cc1 [Example A93]",
    "Category label": "No"
  },
  {
    "Compound": "O=C(NO)C1(S(=O)(=O)N2CCC(c3ccc(COCC(F)(F)F)cn3)CC2)CCOCC1 [Example A173]",
    "Category label": "No"
  },
  {
    "Compound": "O=C(NO)C1(S(=O)(=O)N2CCC(c3cnc(CCC4CC4)cn3)CC2)CCOCC1 [Example A110]",
    "Category label": "No"
  },
  {
    "Compound": "O=C(NO)C1(S(=O)(=O)N2CCC(c3ccc(CCC(F)(F)C(F)(F)F)cn3)CC2)CC=CC1 [Example A101]",
    "Category label": "Yes"
  },
  {
    "Compound": "CSCCOc1ccc(C2CCN(S(=O)(=O)C3(C(=O)NO)CCOCC3)CC2)nc1 [Example A191]",
    "Category label": "No"
  },
  {
    "Compound": "O=C(NO)C1(S(=O)(=O)N2CCN(c3ccc(-c4cccs4)cn3)CC2)CCOCC1 [Example A187]",
    "Category label": "Yes"
  }
]

----------
# Target under test: MMP-14 (Homo sapiens)
# Construct: The catalytic domain enzyme was expressed in E. coli inclusion bodies, solubilized in urea; made in house
# Protocol details: MMP-14 inhibition (in vitro Ki)
# Type: biochemical
# Condition label: Table 9; read-out: MMP-14 Ki (IC-50)
pKi: −log10 of the molar value.
Reported metric: pKi

[
  {
    "Molecule": "O=C(CO)N1CCC(C(=O)NO)(S(=O)(=O)N2CCC(c3ccc(CCC(F)(F)C(F)(F)F)cn3)CC2)CC1 [Example A118]",
    "Reported metric": "pKi",
    "Lt gt eq": "=",
    "Measured": 5.44
  },
  {
    "Molecule": "CC(C)CN(C)C(=O)CCCCC1CCN(S(=O)(=O)C2(C(=O)NO)CCOCC2)CC1 [Example A91]",
    "Reported metric": "pKi",
    "Lt gt eq": "<",
    "Measured": 5.00
  },
  {
    "Molecule": "O=C(CCCCN1CCN(S(=O)(=O)C2(C(=O)NO)CCOCC2)CC1)c1cccc(OC(F)(F)F)c1 [Example A140]",
    "Reported metric": "pKi",
    "Lt gt eq": "<",
    "Measured": 5.00
  },
  {
    "Molecule": "O=C(/C=C/C=C/C1CCN(S(=O)(=O)C2(C(=O)NO)CCOCC2)CC1)N1CCc2ccccc2C1 [Example A75]",
    "Reported metric": "pKi",
    "Lt gt eq": "<",
    "Measured": 5.00
  },
  {
    "Molecule": "CN(C(=O)CCCC1CCN(S(=O)(=O)C2(C(=O)NO)CCOCC2)CC1)c1ccc(F)cc1 [Example A146]",
    "Reported metric": "pKi",
    "Lt gt eq": "<",
    "Measured": 5.00
  },
  {
    "Molecule": "CC1(C)O[C@H]2C[C@@](C(=O)NO)(S(=O)(=O)N3CCC(c4ccc(CCC(F)(F)C(F)(F)F)cn4)CC3)C[C@H]2O1 [Example A73]",
    "Reported metric": "pKi",
    "Lt gt eq": "=",
    "Measured": 6.85
  },
  {
    "Molecule": "O=C(/C=C/C=C/C1CCN(S(=O)(=O)C2(C(=O)NO)CCOCC2)CC1)N1CCOCC1 [Example A208]",
    "Reported metric": "pKi",
    "Lt gt eq": "<",
    "Measured": 5.00
  },
  {
    "Molecule": "CC(C)COc1cnc(C2CCN(S(=O)(=O)C3(C(=O)NO)CCOCC3)CC2)cn1 [Example A132]",
    "Reported metric": "pKi",
    "Lt gt eq": "=",
    "Measured": 5.28
  },
  {
    "Molecule": "COCCOc1ccc(C2CCN(S(=O)(=O)C3(C(=O)NO)CCOCC3)CC2)nc1 [Example A149]",
    "Reported metric": "pKi",
    "Lt gt eq": "=",
    "Measured": 5.18
  },
  {
    "Molecule": "O=C(CCCCC1CCN(S(=O)(=O)C2(C(=O)NO)CCOCC2)CC1)N1Cc2ccccc2C1 [Example A87]",
    "Reported metric": "pKi",
    "Lt gt eq": "<",
    "Measured": 5.00
  },
  {
    "Molecule": "CN(Cc1ccco1)C(=O)CCCCC1CCN(S(=O)(=O)C2(C(=O)NO)CCOCC2)CC1 [Example A99]",
    "Reported metric": "pKi",
    "Lt gt eq": "<",
    "Measured": 5.00
  },
  {
    "Molecule": "O=C(NO)C(CC1CC1)(CC1CC1)S(=O)(=O)N1CCC(c2ccc(CCC(F)(F)F)cn2)CC1 [Example A84]",
    "Reported metric": "pKi",
    "Lt gt eq": "=",
    "Measured": 5.27
  },
  {
    "Molecule": "O=C(NO)C1(S(=O)(=O)N2CCN(c3ccc(-c4cccs4)cn3)CC2)CCOCC1 [Example A187]",
    "Reported metric": "pKi",
    "Lt gt eq": "=",
    "Measured": 5.91
  },
  {
    "Molecule": "CC(C)CN(C)C(=O)/C=C/C=C/C1CCN(S(=O)(=O)C2(C(=O)NO)CCOCC2)CC1 [Example A77]",
    "Reported metric": "pKi",
    "Lt gt eq": "<",
    "Measured": 5.00
  },
  {
    "Molecule": "CCC(F)(F)c1ccc(C2CCN(S(=O)(=O)C3(C(=O)NO)CCOCC3)CC2)nc1 [Example A129]",
    "Reported metric": "pKi",
    "Lt gt eq": "=",
    "Measured": 5.34
  }
]
